# target-desc: T1, human Rh(D) antigen on Rh(D)-positive red blood cells (human, UniProt Q02161 2-417)
# T1 construct: whole, on cells; also called wt; wild type Rh(D)
# T1 sequence (looked up): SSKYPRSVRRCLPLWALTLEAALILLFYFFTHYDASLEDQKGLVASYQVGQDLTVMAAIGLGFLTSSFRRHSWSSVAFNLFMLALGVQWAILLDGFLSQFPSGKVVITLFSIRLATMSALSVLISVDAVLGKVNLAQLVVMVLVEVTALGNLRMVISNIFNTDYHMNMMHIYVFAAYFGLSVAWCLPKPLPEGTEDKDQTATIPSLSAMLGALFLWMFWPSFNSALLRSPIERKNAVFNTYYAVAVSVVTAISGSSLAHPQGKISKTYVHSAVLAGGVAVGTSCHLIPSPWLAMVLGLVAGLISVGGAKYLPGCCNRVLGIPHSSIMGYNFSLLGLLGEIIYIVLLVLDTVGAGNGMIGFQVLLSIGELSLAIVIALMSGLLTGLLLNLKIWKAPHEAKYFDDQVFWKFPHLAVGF
# protocol-text: agglutination, anti-M13
parameter-measured: binding result

>>> observed_measurement("SH10 (Fab, V domains shown, Fab on M13 phage) VH: VQLLEESGGGVVQPGRSLRLSCAASGFTFSRNGMHWVRQAPGKGLEWVAFIWFDGSNKYYADSVKGRFTISRDNSKNTLYLQMNSLRADDTAVYYCAREEALFRGLTRWSYGMDVWGQGTTVSVSS VL: AELQDPVVSVALGQTVRITCQGDGLRSYYASWYQQKPGQAPKLVMYGRNNRPSGIPGRFSGSSSGQTAALTITGTQAEDEADYYCQSRATSGNPVVFGGGTKLTVL")
"binds"
>>> observed_measurement("SH46 (Fab, V domains shown, Fab on M13 phage) VH: VQLLEESGGGVVQPGRSLRLSCAASGFTFSSYGMHWVRQAPGRGLEWVALIWYDGGNKEYADSVKGRFSISRDNSKNTLYLQVNSLRADDTAVYYCARDQRAAAGIFYYSRMDVWGQGTTVTVSS VL: AELTQSPSSLSASVGDRVTITCRASQYISSYLNWYQQKPGKAPNLLIYAASSLQSGVPSRFSGSGSGTDFTLTISSLQPEDFATYYCQQTYSSPSTFGPGTKVDIKR")
"binds"
>>> observed_measurement("SH26 (Fab, V domains shown, Fab on M13 phage) VH: EVQLLESGGGVVQPGRSLRLSCVVSGFTFNNYGMHWVRQAPGKGLEWVAVIWFDGSNKYYADSVKGRFTISRDNSKNTLYLQMNSLRAEDTAVYYCARENQIKLWSRYLYYFDYWGQGTLVTVSS VL: AELTQSPSSLSASVGDRVTITCRASQSISSYLNWYQQKPGKAPKLLIYAASSLQSGVPSRFSGSGSGTDFTLTISSLQPEDFATYYCQQSYSFRRYSFGQGTKLEIKR")
"binds"
